The following compounds are listed with their measured normalised response values.
# Test system: CAL-85-1
# Assay Method Text: normalised response (% of control), CellTox Green; higher = less cell death (100 = DMSO, 0 = benzethonium chloride kill control)
# Particulars: incubation time: 72 h
Return type: number; implicit unit %.

Solved entries:
# Compound, Result Number
records = [
    ("NC(=O)c1ccc(I)c([N+](=O)[O-])c1 [Iniparib] (10000 nM)", 142),
    ("O=P1(N(CCCl)CCCl)NCCCO1 (stereo not drawn) [Cyclophosphamide] (40000 nM)", 92.4),
    ("COCC1(CO)C(=O)C2CCN1CC2 (stereo not drawn) [Prima-1 Met] (100 nM)", 95.6),
    ("S=P(N1CC1)(N1CC1)N1CC1 [Thio-TEPA] (5000 nM)", 95.8),
    ("Cc1ccc(NC(=O)c2ccc(CN3CCN(C)CC3)cc2)cc1Nc1nc(-c2cccnc2)cs1 [Masitinib] (100 nM)", 99.3),
    ("CNC(=O)c1ccc(N2C(=S)N(c3ccc(C#N)c(C(F)(F)F)c3)C(=O)C23CCC3)cc1F [RD162] (100 nM)", 101),
    ("CCc1c2c(nc3ccc(OC(=O)N4CCC(N5CCCCC5)CC4)cc13)-c1cc3c(c(=O)n1C2)COC(=O)[C@]3(O)CC [Irinotecan] (100 nM)", 94.9),
]

Turning now to a further compound:
Give its normalised response value. Item: COc1cc(O)c2c(c1)/C=C/C[C@H](O)[C@H](O)C(=O)/C=C\C[C@H](C)OC2=O [(5Z)-7-Oxozeaenol] (1000 nM)
35.6

Ref: the supplement of paper PMC4862054
